src = ChEMBL document CHEMBL1139221

Form field: half-life (one value per entry).
# MEASUREMENT DESCRIPTION: Stability in rat liver microsome
# Format: ADME
# CONDITION INFO: liver microsomes

- ITEM SMILES: "O=C(O)c1c(O)c(Cc2ccccc2Cl)nc2c3c(ccc12)CCCC3"
  half-life / min: 6
- ITEM SMILES: "O=C(O)c1c(O)c(Cc2cccc(Cl)c2)nc2c3c(ccc12)CCCC3"
  half-life / min: 6

* * *

# ASSAYED SYSTEM: P-selectin (Homo sapiens) (UniProt P16109)
# Sequence (whole entry): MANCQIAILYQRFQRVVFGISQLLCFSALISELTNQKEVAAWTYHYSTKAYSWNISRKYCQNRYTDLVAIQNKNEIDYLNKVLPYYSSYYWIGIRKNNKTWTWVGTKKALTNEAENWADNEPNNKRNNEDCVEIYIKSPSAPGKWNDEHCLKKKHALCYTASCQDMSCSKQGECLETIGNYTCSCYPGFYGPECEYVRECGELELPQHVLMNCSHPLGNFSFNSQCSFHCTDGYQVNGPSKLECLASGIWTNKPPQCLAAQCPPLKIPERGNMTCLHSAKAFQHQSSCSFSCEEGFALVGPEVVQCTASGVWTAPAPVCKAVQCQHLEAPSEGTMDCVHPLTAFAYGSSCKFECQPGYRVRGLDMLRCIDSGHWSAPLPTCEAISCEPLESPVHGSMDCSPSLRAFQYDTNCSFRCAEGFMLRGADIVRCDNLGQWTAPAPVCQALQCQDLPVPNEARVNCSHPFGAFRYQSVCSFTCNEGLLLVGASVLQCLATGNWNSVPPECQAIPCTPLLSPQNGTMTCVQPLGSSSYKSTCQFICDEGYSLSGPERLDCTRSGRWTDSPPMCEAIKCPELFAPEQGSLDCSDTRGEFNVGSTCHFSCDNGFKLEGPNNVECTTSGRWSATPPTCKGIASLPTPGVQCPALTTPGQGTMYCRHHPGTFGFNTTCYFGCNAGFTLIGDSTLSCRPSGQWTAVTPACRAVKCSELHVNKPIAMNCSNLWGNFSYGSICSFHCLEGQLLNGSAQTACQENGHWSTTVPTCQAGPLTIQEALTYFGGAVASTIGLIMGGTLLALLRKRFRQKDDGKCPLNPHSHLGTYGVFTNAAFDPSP
# MEASUREMENT DESCRIPTION: Inhibition of P-Selectin by Biacore assay at 250 uM
Form field: inhibition (one value per entry).
OBSERVATION TYPE: inhibition

- ITEM SMILES: "O=C(Nc1c(Cc2ccc(Cl)cc2)nc2c3c(ccc2c1C(=O)O)CCCC3)c1ccccc1"
  ASSAYED SYSTEM: "P-selectin (Homo sapiens) (UniProt P16109)"
  OBSERVATION TYPE: "inhibition"
  OBS VALUE: "19%"
- ITEM SMILES: "Nc1c(Cc2ccc(Cl)cc2)nc2c3c(ccc2c1C(=O)O)CCCC3"
  ASSAYED SYSTEM: "P-selectin (Homo sapiens) (UniProt P16109)"
  OBSERVATION TYPE: "inhibition"
  OBS VALUE: "15%"
- ITEM SMILES: "CC(=O)Nc1c(Cc2ccc(Cl)cc2)nc2c3c(ccc2c1C(=O)O)CCCC3"
  ASSAYED SYSTEM: "P-selectin (Homo sapiens) (UniProt P16109)"
  OBSERVATION TYPE: "inhibition"
  OBS VALUE: "10%"
- ITEM SMILES: "CC(C)C(=O)Oc1c(Cc2ccc(Cl)cc2)nc2c3c(ccc2c1C(=O)O)CCCC3"
  ASSAYED SYSTEM: "P-selectin (Homo sapiens) (UniProt P16109)"
  OBSERVATION TYPE: "inhibition"
  OBS VALUE: "13%"
- ITEM SMILES: "COc1c(Cc2ccc(Cl)cc2)nc2c3c(ccc2c1C(=O)O)CCCC3"
  ASSAYED SYSTEM: "P-selectin (Homo sapiens) (UniProt P16109)"
  OBSERVATION TYPE: "inhibition"
  OBS VALUE: "20%"

* * *

# MEASUREMENT DESCRIPTION: Oral bioavailability in Beagle dog at 15 mg/kg
# Assay type: ADME, organism-based, Canis lupus familiaris
# CONDITION INFO: in vivo
OBSERVATION TYPE: bioavailability

- COMPOUND: "O=C(O)c1c(O)c(Cc2ccc(Cl)cc2)nc2c3c(ccc12)CCCC3 [PSI-697]"
  OBS VALUE: "58%"

* * *

# MEASUREMENT DESCRIPTION: Bioavailability in C57 mouse
# Format: ADME, organism-based
# CONDITION INFO: in vivo
Form field: bioavailability (one value per entry).

- ITEM SMILES: "O=C(O)c1c(O)c(Cc2ccc(Cl)cc2)nc2c3c(ccc12)CCCC3"
  bioavailability / %: 100
- ITEM SMILES: "O=C(O)c1c(O)c(Cc2c[nH]c3ccccc23)nc2c3c(ccc12)CCCC3"
  bioavailability / %: 30

* * *

# ASSAYED SYSTEM: P-selectin (Homo sapiens, UniProt P16109)
# Sequence (P16109 whole entry): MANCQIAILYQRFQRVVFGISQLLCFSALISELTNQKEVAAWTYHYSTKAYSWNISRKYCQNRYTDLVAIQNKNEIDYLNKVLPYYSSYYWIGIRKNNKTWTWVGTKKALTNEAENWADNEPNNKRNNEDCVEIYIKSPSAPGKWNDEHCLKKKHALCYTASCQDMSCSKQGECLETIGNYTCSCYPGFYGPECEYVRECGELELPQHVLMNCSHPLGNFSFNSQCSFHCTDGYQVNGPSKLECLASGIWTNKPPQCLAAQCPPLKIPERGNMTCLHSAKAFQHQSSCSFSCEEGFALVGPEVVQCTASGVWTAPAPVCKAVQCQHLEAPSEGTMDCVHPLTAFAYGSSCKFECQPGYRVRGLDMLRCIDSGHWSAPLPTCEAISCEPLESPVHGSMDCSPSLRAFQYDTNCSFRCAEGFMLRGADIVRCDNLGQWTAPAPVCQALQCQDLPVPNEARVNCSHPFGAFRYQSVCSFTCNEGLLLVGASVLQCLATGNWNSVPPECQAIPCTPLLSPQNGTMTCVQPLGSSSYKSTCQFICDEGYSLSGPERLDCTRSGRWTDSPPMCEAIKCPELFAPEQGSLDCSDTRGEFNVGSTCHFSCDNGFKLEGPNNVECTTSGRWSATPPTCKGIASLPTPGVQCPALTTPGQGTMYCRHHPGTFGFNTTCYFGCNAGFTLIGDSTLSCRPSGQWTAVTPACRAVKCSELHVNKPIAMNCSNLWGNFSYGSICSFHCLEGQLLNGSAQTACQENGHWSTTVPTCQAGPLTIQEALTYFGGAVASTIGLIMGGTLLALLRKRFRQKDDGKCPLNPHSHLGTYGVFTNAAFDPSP
# MEASUREMENT DESCRIPTION: Inhibition of P-Selectin by Biacore assay
pIC50: −log10 of the molar value.
Form field: pIC50 (one value per entry).

- COMPOUND: "O=C(O)c1c(O)c(Cc2c[nH]c3ccc(Cl)cc23)nc2c3c(ccc12)CCCC3"
  ASSAYED SYSTEM: "P-selectin (Homo sapiens, UniProt P16109)"
  pIC50: 3.76
- COMPOUND: "O=C(O)c1c(O)c(Cc2csc3ccccc23)nc2c3c(ccc12)CCCC3"
  ASSAYED SYSTEM: "P-selectin (Homo sapiens, UniProt P16109)"
  pIC50: 4.00
- COMPOUND: "O=C(O)c1c(O)c(Cc2ccc(Cl)cc2)nc2c3c(ccc12)CCCC3 [PSI-697]"
  ASSAYED SYSTEM: "P-selectin (Homo sapiens, UniProt P16109)"
  pIC50: 3.90
- COMPOUND: "COc1ccc2[nH]cc(Cc3nc4c5c(ccc4c(C(=O)O)c3O)CCCC5)c2c1"
  ASSAYED SYSTEM: "P-selectin (Homo sapiens, UniProt P16109)"
  pIC50: 3.40
- COMPOUND: "O=C(O)c1c(O)c(Cc2ccc(OC(F)(F)F)cc2)nc2c3c(ccc12)CCCC3"
  ASSAYED SYSTEM: "P-selectin (Homo sapiens, UniProt P16109)"
  pIC50: 3.21
- COMPOUND: "O=C(O)c1c(O)c(-c2ccccc2)nc2c3c(ccc12)CCCC3"
  ASSAYED SYSTEM: "P-selectin (Homo sapiens, UniProt P16109)"
  pIC50: 3.26
- COMPOUND: "O=C(O)c1c(O)c(Cc2cccs2)nc2c3c(ccc12)CCCC3"
  ASSAYED SYSTEM: "P-selectin (Homo sapiens, UniProt P16109)"
  pIC50: 3.38
- COMPOUND: "CC(C)S(=O)(=O)N1CCc2ccc3c(C(=O)O)c(O)c(Cc4ccc(Cl)cc4)nc3c2C1"
  ASSAYED SYSTEM: "P-selectin (Homo sapiens, UniProt P16109)"
  pIC50: 3.30
- COMPOUND: "O=C(Oc1c(Cc2ccc(Cl)cc2)nc2c3c(ccc2c1C(=O)O)CCCC3)c1cccs1"
  ASSAYED SYSTEM: "P-selectin (Homo sapiens, UniProt P16109)"
  pIC50: 3.76
- COMPOUND: "COC(=O)Oc1c(Cc2ccc(Cl)cc2)nc2c3c(ccc2c1C(=O)O)CCCC3"
  ASSAYED SYSTEM: "P-selectin (Homo sapiens, UniProt P16109)"
  pIC50: 3.40
